# testSystem: T1, hiR2-FL-L539A-T7 (human, UniProt Q6PJF5 1-856)
# T1 construct: on MEF-DKO cells
# T1 sequence: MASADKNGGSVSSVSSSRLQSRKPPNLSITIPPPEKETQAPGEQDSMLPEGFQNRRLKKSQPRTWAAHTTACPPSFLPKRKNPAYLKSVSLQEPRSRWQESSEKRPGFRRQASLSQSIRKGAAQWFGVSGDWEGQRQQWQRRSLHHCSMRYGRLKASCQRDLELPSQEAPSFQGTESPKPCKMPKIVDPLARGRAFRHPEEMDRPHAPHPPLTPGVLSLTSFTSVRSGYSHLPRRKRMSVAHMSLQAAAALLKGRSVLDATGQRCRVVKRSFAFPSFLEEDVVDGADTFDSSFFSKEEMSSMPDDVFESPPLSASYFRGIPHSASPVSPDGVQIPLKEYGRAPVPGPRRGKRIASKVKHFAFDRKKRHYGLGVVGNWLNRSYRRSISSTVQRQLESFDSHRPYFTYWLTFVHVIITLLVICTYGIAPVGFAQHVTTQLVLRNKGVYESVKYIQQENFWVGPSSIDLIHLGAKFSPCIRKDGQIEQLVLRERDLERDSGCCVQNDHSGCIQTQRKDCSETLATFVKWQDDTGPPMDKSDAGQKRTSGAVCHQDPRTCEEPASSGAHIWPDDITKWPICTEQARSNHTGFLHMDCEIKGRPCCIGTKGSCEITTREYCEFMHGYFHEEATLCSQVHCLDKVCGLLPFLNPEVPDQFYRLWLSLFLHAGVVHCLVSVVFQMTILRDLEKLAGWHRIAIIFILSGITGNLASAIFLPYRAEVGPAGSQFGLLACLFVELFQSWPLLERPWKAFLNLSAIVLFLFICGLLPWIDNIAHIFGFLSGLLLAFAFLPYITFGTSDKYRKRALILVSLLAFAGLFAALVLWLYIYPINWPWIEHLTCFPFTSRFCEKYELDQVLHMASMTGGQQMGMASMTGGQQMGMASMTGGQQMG
# methodDescription: FACS on MEF-DKO cells expressing the variant, 3 µg/ml antibody
So I've got a bunch of binders here, and I need their loss of binding vs wild type values.

antibody 43 (antibody, V domains shown, mouse IgG, kappa light chain; also called clone #43; purified antibody 43) VH: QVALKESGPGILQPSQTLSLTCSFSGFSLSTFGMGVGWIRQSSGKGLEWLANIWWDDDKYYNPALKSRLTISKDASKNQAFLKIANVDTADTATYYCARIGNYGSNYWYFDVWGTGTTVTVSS VL: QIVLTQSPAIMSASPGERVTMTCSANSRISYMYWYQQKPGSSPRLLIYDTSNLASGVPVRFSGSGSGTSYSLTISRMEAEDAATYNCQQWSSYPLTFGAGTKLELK
≥ 95%

Quick one: give me loss of binding vs wild type for each item below, same order please.
1. antibody 34 (antibody, V domains shown, mouse IgG, kappa light chain; also called clone #34; purified antibody 34) VH: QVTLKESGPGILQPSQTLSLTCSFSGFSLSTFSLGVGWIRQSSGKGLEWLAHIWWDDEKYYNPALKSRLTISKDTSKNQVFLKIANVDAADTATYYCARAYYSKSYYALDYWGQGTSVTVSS VL: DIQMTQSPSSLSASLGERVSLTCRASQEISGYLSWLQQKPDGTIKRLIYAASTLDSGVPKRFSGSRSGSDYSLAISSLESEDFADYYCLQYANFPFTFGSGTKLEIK
2. antibody 42 (antibody, V domains shown, mouse IgG, kappa light chain; also called clone #42; purified antibody 42) VH: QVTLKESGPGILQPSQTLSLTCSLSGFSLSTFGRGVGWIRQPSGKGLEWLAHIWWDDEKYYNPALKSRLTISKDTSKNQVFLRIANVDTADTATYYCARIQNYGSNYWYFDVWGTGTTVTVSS VL: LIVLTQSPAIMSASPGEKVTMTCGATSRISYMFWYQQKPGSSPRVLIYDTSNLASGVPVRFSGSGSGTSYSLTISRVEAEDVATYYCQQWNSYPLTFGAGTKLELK

1. ≥ 60%
2. ≥ 60%
